STUDY SYSTEM: protein-protein interaction between Kras and SOS1 (biotin-tagged human Kras loaded with GDP, His-tagged human SOS1) (Homo sapiens (Human), UniProt P01116, G12D)
PROTOCOL TEXT: Protein-protein interaction inhibition between Kras and SOS1 (KrasG12D-SOS PPI) using AlphaScreen;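 further: kras produced in E. coli, Ni-coupled donor beads and streptavidin acceptor beads, excitation 680 nm with emission detected at 520–620 nm via singlet oxygen transfer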
Type: biochemical
CONDITION NOTES: AlphaScreen; biotin-tagged human Kras loaded with GDP, His-tagged human SOS1; read-out: KRAS G12D-SOS PPI IC50
Numbered stars: 1 amine (or outer) side, 2 acyl side, 3 side chain; on linkers, the order of the positions; unused ones are H or OH. Bridge positions count the residues as written; N and C are the ends. Square brackets hold non-standard residues; d marks the D form. Peptide text beside a SMILES is read from it. * marks the point of attachment. hPhe(3-Cl-4-CF3) = N[C@@H](CCc1ccc(C(F)(F)F)c(Cl)c1)C(=O)O; hPhe(4-CF3) = N[C@@H](CCc1ccc(C(F)(F)F)cc1)C(=O)O; NMePhe(4-Cl) = CN[C@@H](Cc1ccc(Cl)cc1)C(=O)O; X67 = O=C([C@@H]1CCC[C@H]1N[*:1])[*:2]; NMeCha = CN[C@@H](CC1CCCCC1)C(=O)O; NMeI = CC[C@H](C)[C@H](NC)C(=O)O; NMeD = CN[C@@H](CC(=O)O)C(=O)O; NMeL = CN[C@@H](CC(C)C)C(=O)O; NMeNle = CCCC[C@H](NC)C(=O)O; NMeV = CN[C@H](C(=O)O)C(C)C; d(β3hA) = C[C@@H](N)CC(=O)O; dPip = O=C(O)[C@H]1CCCCN1; NMeA = CN[C@@H](C)C(=O)O; Piperidide = C1CCN(*)CC1; Ac5c = NC1(C(=O)O)CCCC1; Aze = O=C(O)[C@@H]1CCN1; Sar = CNCC(=O)O
TEST READOUT: pIC50
The value called pIC50 is obtained by taking minus log10 of the concentration in mol/L.

Known results for molecules:
MOLECULE	VALUE MEASURED
CC[C@H](C)[C@@H]1NC(=O)[C@H](C)N(C)C(=O)C[C@@H](C(=O)N2CCCCC2)N(C)C(=O)[C@H](C(C)C)N(C)C(=O)C2(CCCC2)NC(=O)[C@@H]2CCCN2C(=O)[C@H](CCc2ccc(C(F)(F)F)c(Cl)c2)NC(=O)[C@H]2CCCCN2C(=O)[C@H](CC2CCCCC2)N(C)C(=O)CN(C)C(=O)CN(C)C1=O [Compound 1118] ([NMeA]I[Sar][Sar][NMeCha][dPip][hPhe(3-Cl-4-CF3)]P[Ac5c][NMeV][NMeD]-Piperidide; lactam N-11)	6.70
CCCC[C@H]1C(=O)N2CC[C@H]2C(=O)N(C)[C@@H](CC2CCCCC2)C(=O)N(C)CC(=O)N[C@@H](CCc2ccc(C(F)(F)F)c(Cl)c2)C(=O)N2CCC[C@H]2C(=O)NC2(CCCC2)C(=O)N(C)[C@@H](C(C)C)C(=O)N(C)[C@H](C(=O)N2CCCCC2)CC(=O)N(C)[C@@H](CC(C)C)C(=O)N[C@@H]([C@@H](C)CC)C(=O)N1C [Compound 1596] ([NMeL]I[NMeNle][Aze][NMeCha][Sar][hPhe(3-Cl-4-CF3)]P[Ac5c][NMeV][NMeD]-Piperidide; lactam N-11)	7.64
CC[C@H](C)[C@@H]1NC(=O)[C@H](CC(C)C)N(C)C(=O)C[C@@H](C)NC(=O)[C@H]([C@@H](C)CC)N(C)C(=O)C2(CCCC2)NC(=O)[C@@H]2CCCN2C(=O)[C@H](CCc2ccc(C(F)(F)F)c(Cl)c2)NC(=O)CN(C)C(=O)[C@H](CC2CCCCC2)N(C)C(=O)[C@@H]2CCN2C(=O)[C@H](C)N(C)C1=O [Compound 1654] (cyclo([Ac5c][NMeI][d(β3hA)][NMeL]I[NMeA][Aze][NMeCha][Sar][hPhe(3-Cl-4-CF3)]P))	7.66
CC[C@H](C)[C@@H]1NC(=O)[C@H](CC(C)C)N(C)C(=O)C[C@@H](C(=O)N2CCCCC2)N(C)C(=O)[C@H](C(C)C)N(C)C(=O)C2(CCCC2)NC(=O)[C@@H]2CCCN2C(=O)[C@H](CCc2ccc(C(F)(F)F)c(Cl)c2)NC(=O)CN(C)C(=O)[C@H](CC2CCCCC2)N(C)C(=O)[C@@H]2CCN2C(=O)[C@H](CC(C)C)N(C)C1=O [Compound 1558] ([NMeL]I[NMeL][Aze][NMeCha][Sar][hPhe(3-Cl-4-CF3)]P[Ac5c][NMeV][NMeD]-Piperidide; lactam N-11)	7.15

Recorded pIC50 for CC[C@H](C)[C@@H]1NC(=O)[C@H](C(C)C)N(C)C(=O)[C@@H]2CCC[C@H]2NC(=O)[C@H](CC(C)C)N(C)C(=O)C2(CCCC2)NC(=O)[C@H](CC(C)C)N(C)C(=O)[C@H](CCc2ccc(C(F)(F)F)cc2)NC(=O)CN(C)C(=O)[C@H](Cc2ccc(Cl)cc2)N(C)C(=O)CN(C)C(=O)CN(C)C1=O [Compound 996] (cyclo([Ac5c][NMeL][X67][NMeV]I[Sar][Sar][NMePhe(4-Cl)][Sar][hPhe(4-CF3)][NMeL])) , please?
7.05
